- measurement_target: rat µ opioid receptor (rat, UniProt P33535 1-398)
- Sequence (P33535 whole entry): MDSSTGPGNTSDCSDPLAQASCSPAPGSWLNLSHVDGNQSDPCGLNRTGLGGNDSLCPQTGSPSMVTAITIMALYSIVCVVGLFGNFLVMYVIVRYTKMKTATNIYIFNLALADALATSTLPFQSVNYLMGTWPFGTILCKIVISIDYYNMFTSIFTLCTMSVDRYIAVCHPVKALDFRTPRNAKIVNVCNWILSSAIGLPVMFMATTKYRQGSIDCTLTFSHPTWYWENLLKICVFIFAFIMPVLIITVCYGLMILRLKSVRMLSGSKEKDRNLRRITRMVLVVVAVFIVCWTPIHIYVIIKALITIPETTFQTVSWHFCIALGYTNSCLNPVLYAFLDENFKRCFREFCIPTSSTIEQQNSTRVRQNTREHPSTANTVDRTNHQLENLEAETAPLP
- test_description: cell-based or functional assay
Bridge positions count the residues as written; N and C are the ends. Square brackets hold non-standard residues; d marks the D form. Primed or numbered codes have the meaning given here. Ends that are not written are not given here. * marks the point of attachment. NHBn(CF3)2 = C-terminal amide NH-Bn(CF3)2, a benzyl group carrying two CF3; Glc = O-glucosyl on Ser side chain (Ser(OGlu)/Ser(OGlc)); NH(3,5-(CF3)2-benzyl) = FC(F)(F)c1cc(CN*)cc(C(F)(F)F)c1; NMeBn(3,5-(CF3)2) = CN(Cc1cc(C(F)(F)F)cc(C(F)(F)F)c1)*; OBzl(3,5-(CF3)2) = FC(F)(F)c1cc(CO*)cc(C(F)(F)F)c1; Glc″ = glucosyl on the serine side-chain oxygen; NH‑Bn(CF3)2 = C-terminal Bn(CF3)2 amide; OBn(CF3)2 = C-terminal Bn(CF3)2 ester; Dmt = Cc1cc(O)cc(C)c1C[C@H](N)C(=O)O; Nle = CCCC[C@H](N)C(=O)O; Aib = CC(C)(N)C(=O)O; NHBn = c1ccc(CN*)cc1; OBn = c1ccc(CO*)cc1
Returns: string. Value is 1 if measured GTP binding rMOR Emax is below 50%, and 0 if it is greater than or equal to it.

Just wondering, is GTP binding rMOR Emax of Y[dC]GF[Nle]PCW-{NH(3,5-(CF3)2-benzyl)} (disulfide 2-7, also called [D-Cys2, Cys7]TY027) [Tyr[DCysGlyPheNleProCys]TrpNHBn(CF3)2 (TY035)] below 50%? 1

Does this binder meet the criterion GTP binding rMOR Emax < 50%? Y[dA]GFFPLW-{NHBn(CF3)2} [TyrDAlaGlyPhePheProLeuTrpNHBn(CF3)2 (TY015)] 0

Strictly below 50% in GTP binding rMOR Emax? Y[dA]GFMPLW-{OBzl(3,5-(CF3)2)} [TyrDAlaGlyPheMetProLeuTrpOBn(CF3)2 (TY005)] 1

Is GTP binding rMOR Emax strictly under 50% for the entry Y[dA]GFFPLW-OBn [TyrDAlaGlyPhePheProLeuTrpOBn (TY014)] ? 0

Say whether its GTP binding rMOR Emax is strictly beneath 50%. Entry: YXGFXPLW (D-Pen at 2 and 5 (X); disulfide 2-5 (cyclic); C-terminal NH-Bn(CF3)2 amide) [Tyr[DPenGlyPheDPen]ProLeuTrpNHBn(CF3)2 (TY049)] 1

Item Y[dA]GF[Nle]S(Glc″)LW-{NH‑Bn(CF3)2} [TyrDAlaGlyPheNleSer(OGlu)LeuTrpNHBn(CF3)2 (TY044)] : GTP binding rMOR Emax beneath 50%, strictly? 0

Check if GTP binding rMOR Emax falls below 50% for Y[dA]GFM[dP]LW-{OBzl(3,5-(CF3)2)} [TyrDAlaGlyPheMetDProLeuTrpOBn(CF3)2 (TY024)] . 1

Strictly below 50%: is that where GTP binding rMOR Emax of Y[dA]GFSPLW-{NH(3,5-(CF3)2-benzyl)} (not fully specified (residue 5); printed as TyrDAlaGlyPheSer(OGlu)ProLeuTrpNHBn(CF3)2) [TyrDAlaGlyPheSer(OGlu)ProLeuTrpNHBn(CF3)2 (TY042)] sits? 1

Strictly below 50%: is that where GTP binding rMOR Emax of Y[dA]GF[Nle]PS(Glc)W-{NH‑Bn(CF3)2} [TyrDAlaGlyPheNleProSer(OGlu)TrpNHBn(CF3)2 (TY041)] sits? 1

Does this binder meet the criterion GTP binding rMOR Emax < 50%? Y[dA]GFM[Aib]LW-{OBn(CF3)2} [TyrDAlaGlyPheMetAibLeuTrpOBn(CF3)2 (TY022)] 1

A record lists Y[dA]GFMPLW-OBn [TyrDAlaGlyPheMetProLeuTrpOBn (TY029)] . Is its GTP binding rMOR Emax below 50%? 0

Would you kindly verify if GTP binding rMOR Emax of Y[dA]GFFPLW-{NMeBn(3,5-(CF3)2)} [TyrDAlaGlyPhePheProLeuTrpNMeBn(CF3)2 (TY017)] is strictly less than 50%? 0

Take the binder Y[dA]GFLPLW-{OBzl(3,5-(CF3)2)} [TyrDAlaGlyPheLeuProLeuTrpOBn(CF3)2 (TY004)] and say whether its GTP binding rMOR Emax is less than 50%. 1

Is it true that GTP binding rMOR Emax reported for Y[dA]GFMPLW-NHBn [TyrDAlaGlyPheMetProLeuTrpNHBn (TY025)] is less than 50%? 1

Check if GTP binding rMOR Emax falls below 50% for [Dmt][dA]GFMPLW-{NH(3,5-(CF3)2-benzyl)} [DmtDAlaGlyPheMetProLeuTrpNHBn(CF3)2 (TY032)] . 0

hey, is GTP binding rMOR Emax for [Dmt][dA]GF[Nle]PS(Glc)W-{NH‑Bn(CF3)2} [DmtDAlaGlyPheNleProSer(OGlu)TrpNHBn(CF3)2 (TY056)] lower than 50% or not? 0

GTP binding rMOR Emax strictly < 50% for this binder? Y[dA]GFGPLW-{OBzl(3,5-(CF3)2)} [TyrDAlaGlyPheGlyProLeuTrpOBn(CF3)2 (TY006)] 1

Bench note: check whether Y[dA]GFFPLW-{OBzl(3,5-(CF3)2)} [TyrDAlaGlyPhePheProLeuTrpOBn(CF3)2 (TY003)] shows GTP binding rMOR Emax below 50% 1

Quick check: GTP binding rMOR Emax of Y[dA]GF[dF]PLW-{OBzl(3,5-(CF3)2)} [TyrDAlaGlyPheDPheProLeuTrpOBn(CF3)2 (TY007)] under 50%? 1

Check if GTP binding rMOR Emax falls below 50% for Y[dC]GFCPLW-{NH(3,5-(CF3)2-benzyl)} (disulfide 2-5, also called [D-Cys2, Cys5]) [Tyr[DCysGlyPheCys]ProLeuTrpNHBn(CF3)2 (TY039)] . 1
